These entries and their values trace back to ChEMBL document CHEMBL3137667.

Conditions: human, serum;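 note: human clinical chemistry: moderate when serum ALT or AST reaches 6× upper normal limit or alkaline phosphatase 1.7×, value counts indexed literature references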
Answer each item with its documented Hepatotoxicity (moderate).
Numbers only.

Past entries and their recorded results:
compound	attribute.measured	experimental.result
CCC(c1ccccc1)c1c(O)c2ccccc2oc1=O (configuration not stated)	Hepatotoxicity (moderate)	2
C[C@H](O)C(=O)Nc1c(I)c(C(=O)NC(CO)CO)c(I)c(C(=O)NC(CO)CO)c1I	Hepatotoxicity (moderate)	0
Oc1c(Cl)c(Cl)c(Cl)c(Cl)c1Cl	Hepatotoxicity (moderate)	0
C[C@]12C=CC(=O)C=C1CC[C@@H]1[C@@H]2C(=O)C[C@@]2(C)[C@H]1CC[C@]2(O)C(=O)CO	Hepatotoxicity (moderate)	1
CC=CC1=C(C(=O)O)N2C(=O)[C@@H](NC(=O)[C@H](N)c3ccc(O)cc3)[C@H]2SC1	Hepatotoxicity (moderate)	42

Value sought for every listed compound: Hepatotoxicity (moderate).
1. COc1cc(Cc2cnc(N)nc2N)cc(OC)c1OC.Cc1cc(NS(=O)(=O)c2ccc(N)cc2)no1
2. CCc1[nH]c(=O)[nH]c1C(=O)c1ccncc1
3. CN(C)CCCN1c2ccccc2Sc2ccc(Cl)cc21
4. O=C1CN(/N=C/c2ccc(-c3ccc([N+](=O)[O-])cc3)o2)C(O)=N1
5. CCN(CC)CCOc1ccc(C(=C(Cl)c2ccccc2)c2ccccc2)cc1
6. N[C@@H](C(=O)N[C@@H]1C(=O)N2C(C(=O)O)=C(Cl)CS[C@H]12)c1ccccc1 [CEFACLOR ANHYDROUS]

[46, 0, 9, 11, 1, 20]
